TEST TARGET: latent 20S proteasome (CT-L activity) (Saccharomyces cerevisiae, UniProt P23724+P30656)
Construct: The yeast (Saccharomyces cerevisae) 26S and 20S proteasomes were purified according to the protocol described in; made in house; host or cells: Saccharomyces cerevisiae (native complex purified from yeast by the cited Leggett et al. 2002 protocol)
TEST DETAILS: Activating effect on the CT-L activity of the latent 20S proteasome (activation factor fa)
Assay type: biochemical, yeast (Saccharomyces cerevisae)
Set-up: key: fa = initial rate with compound / initial rate of control (Va/V0)
RECORDED CONDITIONS: fa = Va/V0, concentration not given
Ends that are not written are not given here.
MEASUREMENT TYPE: fa CT-L activity

Query (substance): CH3—(CH2)14—CO-TVTYKF ; field requested: fa CT-L activity
2

Entry under review: TITYEY [reference compound] . Reported fa CT-L activity?
2

What value of measured fa CT-L activity is listed for TITFDY [reference compound] ?
5

For TVTFKF [TVTFKF, reference compound] , what is its reported fa CT-L activity?
2.3

Need fa CT-L activity of CH3—(CH2)16—CO-TITFDY [C18/TITFDY] , thanks.
6

Could you tell me which fa CT-L activity is on file for CH3—(CH2)16—CO-TVTYKF ?
3.2

Can you share its fa CT-L activity? I mean this substance: CH3—(CH2)14—CO-TITFDY [C16/TITFDY]
3

Entry CH3—(CH2)12—CO-TVTYKF [C14/TVTYKF] : reported fa CT-L activity = ?
2

====

TEST TARGET: yeast activated 20S proteasome (CT-L activity) (Saccharomyces cerevisiae, UniProt P23724+P30656)
Construct: The yeast (Saccharomyces cerevisae) 26S and 20S proteasomes were purified according to the protocol described in; made in house; host or cells: Saccharomyces cerevisiae (native complex purified from yeast by the cited Leggett et al. 2002 protocol)
TEST DETAILS: Inhibition of the CT-L (chymotrypsin-like) peptidase activity of the activated 20S proteasome, substrate Suc-LLVY-amc
Format: biochemical, yeast (Saccharomyces cerevisae)
RECORDED CONDITIONS: activated 20S proteasome; read-out: CT-L activity: IC50
Ends that are not written are not given here.
What pIC50 was measured for each of the following?
# pIC50: negative log10 of molar concentration; output just the value

Quick one: pIC50 for TVTFKF [TVTFKF, reference compound] ?
3.64

What value of pIC50 has been reported for the following substance? TITYKF [TITYKF, reference compound]
3.59

====

TEST TARGET: yeast activated 20S proteasome (CT-L activity) (Saccharomyces cerevisiae, UniProt P23724+P30656)
Construct: The yeast (Saccharomyces cerevisae) 26S and 20S proteasomes were purified according to the protocol described in; made in house; host or cells: Saccharomyces cerevisiae (native complex purified from yeast by the cited Leggett et al. 2002 protocol)
TEST DETAILS: Inhibition of the CT-L (chymotrypsin-like) peptidase activity of the activated 20S proteasome, substrate Suc-LLVY-amc
Type: biochemical, yeast (Saccharomyces cerevisae)
RECORDED CONDITIONS: estimated values; activity type not named at the place; peptide tested under conditions where its hydrolysis is negligible; read-out: IC50 (activated 20S proteasome inhibitor)
MEASUREMENT TYPE: pIC50
// pIC50: -log10(molar conc.)

Using the record for CC(C)C[C@@H](CNCC(=O)N1CCC[C@H]1C(=O)N[C@@H](CO)C(=O)O)NC(=O)[C@H](CC(N)=O)NC(=O)[C@@H](N)[C@@H](C)O [Pseudopeptide 1, TNL-ψ[CH2—NH]-GPS] , report its pIC50.
3.42

Attribution: patent US20080076718A1
